These measurements were taken from the RNAGym collection of RNA variant scans (doi:10.1093/molbev/msab373).

B1: Azoarcus group I ribozyme (parent)
chain: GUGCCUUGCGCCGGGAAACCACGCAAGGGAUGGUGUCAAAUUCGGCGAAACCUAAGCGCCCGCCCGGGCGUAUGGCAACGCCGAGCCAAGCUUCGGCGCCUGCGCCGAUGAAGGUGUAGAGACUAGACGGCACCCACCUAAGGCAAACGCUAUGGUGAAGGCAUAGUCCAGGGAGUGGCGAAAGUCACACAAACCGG

# Variants of: B1
# Method description: reverse-splicing fitness (ratio to wild type); higher = more active; in vitro selection; Mg2+ level not given
Is reverse-splicing fitness at least 0.007? Then 1. If not, -1.

INSERT INTO assay_data (mut, category_label) VALUES
  ('C82A A111C A120G A145C C150U C169U U176C', 1),
  ('C82A A111C A120U A145G C150G U176A', 1),
  ('C82G A111U A120U C150A C169G U176C', -1),
  ('A111G A120C A145U C150A C169A U176A', 1),
  ('A111C A120U A145C C150G C169A', -1),
  ('A111G A120U A145U C150A C169A', -1),
  ('A111G A120G A145C C150A U176C', 1),
  ('C82G A111C A120C A145C C169U U176C', 1),
  ('C82U A111C A145U C150U U176G', 1),
  ('C82A A111U A145U C150U', 1),
  ('A111G A120C A145G C150G C169U', 1),
  ('C82A A111G A120G U176C', 1),
  ('C82A A111G A145U C150U C169A U176A', 1),
  ('C82U A111C A145G C150G C169U', 1),
  ('C82G A111G A120G A145G C169U U176C', 1),
  ('C82A A120U A145C C150U C169A U176C', -1),
  ('C82U A111G A120U A145U C150G C169U U176A', -1),
  ('A111U C150U', 1),
  ('C82G A120G C150G C169A U176C', 1),
  ('A111G A120U A145G C150G C169U U176A', -1),
  ('C82G A111U A120G C150G C169U U176A', 1);
